Molecular target: caspase-8 (Homo sapiens, UniProt Q14790)
Sequence (Q14790 217-374 limits assumed): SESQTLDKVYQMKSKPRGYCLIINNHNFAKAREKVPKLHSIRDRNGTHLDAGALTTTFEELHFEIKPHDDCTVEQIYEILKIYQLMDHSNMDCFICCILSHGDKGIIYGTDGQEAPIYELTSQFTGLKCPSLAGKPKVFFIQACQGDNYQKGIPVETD
Sequence (Q14790 385-479 limits assumed): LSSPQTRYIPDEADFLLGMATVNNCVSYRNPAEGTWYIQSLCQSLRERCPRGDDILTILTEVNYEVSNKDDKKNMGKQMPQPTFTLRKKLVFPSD
OBSERVED_PROPERTY: Ki (nM)
Please give a number only; it is taken to be in nM.

(Q) State Ki (caspase-8 (Homo sapiens, UniProt Q14790)) of [Zn+2] [Zinc, zinc] .
(A) 4.3
